- Organism: Rattus norvegicus
- Experiment description: Open TG-GATES - Regimen: Single
- Type: toxicity, organism-based, Sprague-Dawley
- Parameters: regimen Single, gender Male, age 6 weeks
- Recorded conditions: in vivo, po, 100 mg/kg, 24 h, tissue Blood, route gavage, dose level High
# key: entry, value: WBC
Measurement name: WBC

> print(dat)
                                   molecule  measurement.name  endpoint.value
1  CC1=C(/C=C/C(C)=C/C=C/C(C)=C/CO)C(C)(C)CCC1               WBC   93.1 x10_2/uL
2         CN(C)CCCN1c2ccccc2CCc2ccc(Cl)cc21               WBC   91.7 x10_2/uL
3                CN(C)CCN(Cc1cccs1)c1ccccn1               WBC   61.6 x10_2/uL
4             CN(C)CCCN1c2ccccc2CCc2ccccc21               WBC     49 x10_2/uL

* * *

- Species on record: Rattus norvegicus
- Experiment description: Open TG-GATES - Regimen: Single
- Assay type: toxicity, organism-based, Sprague-Dawley
- Parameters: regimen Single, gender Male, age 6 weeks
- Recorded conditions: in vivo, po, 0 mg/kg, 9 h, tissue Blood, route gavage, dose level Control
Measurement name: MCV (fL)

> print(dat)
                                    compound  measurement.name  endpoint.value
 1                           NNC(=O)c1ccncc1               MCV            61.1
 2  CC1=C(/C=C/C(C)=C/C=C/C(C)=C/CO)C(C)(C)CCC1               MCV              63
 3  COc1cc2c(c(OC)c1OC)-c1ccc(OC)c(=O)cc1[C@@H](NC(C)=O)CC2               MCV            65.8
 4  COC1=CC(=O)C[C@@H](C)[C@]12Oc1c(Cl)c(OC)cc(OC)c1C2=O               MCV            63.1
 5       CN1C(=O)CN=C(c2ccccc2)c2cc(Cl)ccc21               MCV              66
 6  CC/C(=C(\c1ccccc1)c1ccc(OCCN(C)C)cc1)c1ccccc1               MCV              64
 7  COc1ccc2[nH]c([S+]([O-])Cc3ncc(C)c(OC)c3C)nc2c1 (stereo not given)               MCV            62.6
 8      NC(N)=Nc1nc(CSCCC(N)=NS(N)(=O)=O)cs1               MCV            63.3
 9             CN(C)CCCN1c2ccccc2CCc2ccccc21               MCV            65.1
10                CN(C)CCN(Cc1cccs1)c1ccccn1               MCV            63.9

* * *

- Organism: Rattus norvegicus
- Experiment description: Open TG-GATES - Regimen: Single
- Assay type: toxicity, organism-based, Sprague-Dawley
- Design: regimen Single, gender Male, age 6 weeks
- Recorded conditions: in vivo, po, 300 mg/kg, 9 h, tissue Blood, route gavage, dose level Middle
Measurement name: Eos (%)

Compound	Endpoint value
COC1=CC(=O)C[C@@H](C)[C@]12Oc1c(Cl)c(OC)cc(OC)c1C2=O [GRISEOFULVIN]	0.8
COc1ccc2[nH]c([S+]([O-])Cc3ncc(C)c(OC)c3C)nc2c1 (centres undefined) [OMEPRAZOLE]	1
CCOC(=O)CCC(=O)O[C@H]1[C@H](O[C@@H]2[C@@H](C)[C@H](O[C@H]3C[C@@](C)(OC)[C@@H](O)[C@H](C)O3)[C@@H](C)C(=O)O[C@H](CC)[C@@](C)(O)[C@H](O)[C@@H](C)C(=O)[C@H](C)C[C@@]2(C)O)O[C@H](C)C[C@@H]1N(C)C [ERYTHROMYCIN ETHYLSUCCINATE]	1.2
NC(N)=Nc1nc(CSCCC(N)=NS(N)(=O)=O)cs1 [FAMOTIDINE]	0.8

* * *

Overview of reported Bas across a group of molecules:
- Species: Rattus norvegicus
- Experiment description: Open TG-GATES - Regimen: Single
- Assay type: toxicity, organism-based, Sprague-Dawley
- Parameters: regimen Single, gender Male, age 6 weeks
- Recorded conditions: in vivo, po, 100 mg/kg, 9 h, tissue Blood, route gavage, dose level Low

Molecule	Bas / %
COc1ccc2[nH]c([S+]([O-])Cc3ncc(C)c(OC)c3C)nc2c1 (centres undefined)	0
CCOC(=O)CCC(=O)O[C@H]1[C@H](O[C@@H]2[C@@H](C)[C@H](O[C@H]3C[C@@](C)(OC)[C@@H](O)[C@H](C)O3)[C@@H](C)C(=O)O[C@H](CC)[C@@](C)(O)[C@H](O)[C@@H](C)C(=O)[C@H](C)C[C@@]2(C)O)O[C@H](C)C[C@@H]1N(C)C [ERYTHROMYCIN ETHYLSUCCINATE]	0
NC(N)=Nc1nc(CSCCC(N)=NS(N)(=O)=O)cs1	0
COC1=CC(=O)C[C@@H](C)[C@]12Oc1c(Cl)c(OC)cc(OC)c1C2=O	0

* * *

Measured Fbg by item
- Species: Rattus norvegicus
- Experiment description: Open TG-GATES - Regimen: Daily Repeat
- Type: toxicity, organism-based, Sprague-Dawley
- Design: regimen Daily Repeat, gender Male, age 6 weeks
- Recorded conditions: in vivo, po, 300 mg/kg, 72 h, tissue Blood, route gavage, dose level Middle, time 3 day

Molecule	Fbg / mg/dL
CCOC(=O)CCC(=O)O[C@H]1[C@H](O[C@@H]2[C@@H](C)[C@H](O[C@H]3C[C@@](C)(OC)[C@@H](O)[C@H](C)O3)[C@@H](C)C(=O)O[C@H](CC)[C@@](C)(O)[C@H](O)[C@@H](C)C(=O)[C@H](C)C[C@@]2(C)O)O[C@H](C)C[C@@H]1N(C)C [ERYTHROMYCIN ETHYLSUCCINATE]	311.6
CCOc1ccc(NC(=O)CC(C)O)cc1 (stereo not given) [BUCETIN]	291.2
COc1ccc2[nH]c([S+]([O-])Cc3ncc(C)c(OC)c3C)nc2c1 (stereo not given) [OMEPRAZOLE]	223
COC1=CC(=O)C[C@@H](C)[C@]12Oc1c(Cl)c(OC)cc(OC)c1C2=O [GRISEOFULVIN]	220
NC(N)=Nc1nc(CSCCC(N)=NS(N)(=O)=O)cs1 [FAMOTIDINE]	222

* * *

Entries and their GLC
- Organism: Rattus norvegicus
- Experiment description: Open TG-GATES - Regimen: Single
- Type: toxicity, organism-based, Sprague-Dawley
- Set-up: regimen Single, gender Male, age 6 weeks
- Recorded conditions: in vivo, po, 1000 mg/kg, 24 h, tissue Plasma, route gavage, dose level High

Compound	GLC, mg/dL
COc1ccc2[nH]c([S+]([O-])Cc3ncc(C)c(OC)c3C)nc2c1 (stereo not given)	200.4
CCOC(=O)CCC(=O)O[C@H]1[C@H](O[C@@H]2[C@@H](C)[C@H](O[C@H]3C[C@@](C)(OC)[C@@H](O)[C@H](C)O3)[C@@H](C)C(=O)O[C@H](CC)[C@@](C)(O)[C@H](O)[C@@H](C)C(=O)[C@H](C)C[C@@]2(C)O)O[C@H](C)C[C@@H]1N(C)C [ERYTHROMYCIN ETHYLSUCCINATE]	197.8
COC1=CC(=O)C[C@@H](C)[C@]12Oc1c(Cl)c(OC)cc(OC)c1C2=O	212.4
NC(N)=Nc1nc(CSCCC(N)=NS(N)(=O)=O)cs1	199.6
CC(C)OC(=O)C(C)(C)Oc1ccc(C(=O)c2ccc(Cl)cc2)cc1 [FENOFIBRATE]	172.2

* * *

- Organism: Rattus norvegicus
- Experiment description: Open TG-GATES - Regimen: Single
- Assay type: toxicity, organism-based, Sprague-Dawley
- Parameters: regimen Single, gender Male, age 6 weeks
- Recorded conditions: in vivo, po, 0 mg/kg, 9 h, tissue Plasma, route gavage, dose level Control
CRE values for the molecules below.
Measurement name: CRE (mg/dL)

> print(dat)
                                   molecule  unit.info  endpoint.value
1  CCCNC(=O)NS(=O)(=O)c1ccc(Cl)cc1 [CHLORPROPAMIDE]      mg/dL             0.2
2             CN(C)CCCN1c2ccccc2CCc2ccccc21      mg/dL             0.1
3  COc1cc2c(c(OC)c1OC)-c1ccc(OC)c(=O)cc1[C@@H](NC(C)=O)CC2      mg/dL             0.5
4  CCOc1ccc(NC(=O)CC(C)O)cc1 (stereo unspecified)      mg/dL             0.2
5                           NNC(=O)c1ccncc1      mg/dL             0.4
6         CN(C)CCCN1c2ccccc2CCc2ccc(Cl)cc21      mg/dL             0.2
